- study-system: T1, extracellular domain of human BLyS protein (hBLyS-ECD), His-tagged, Ala134-Leu285 (human, UniProt Q9Y275 134-285)
- T1 construct: Expressed in HEK293 cells and purified on a Ni column; also called immunogen
- T1 sequence (Q9Y275 134-285): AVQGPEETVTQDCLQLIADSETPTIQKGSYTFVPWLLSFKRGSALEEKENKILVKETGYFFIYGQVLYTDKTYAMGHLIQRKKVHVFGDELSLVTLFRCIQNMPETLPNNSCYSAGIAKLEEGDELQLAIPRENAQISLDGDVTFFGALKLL
- test-protocol: SPR (Biacore), antibody captured by anti-human Fc, hBLyS-ECD as analyte
metric: pKd
pKd here: minus log base 10 of the concentration, concentration in moles per litre.

What does the data say about its pKd? Entry: c97A3C2H4 (antibody, V domains shown, also called chimeric antibody c97A3C2H4) VH: EVKLVESGGGLVQPGGSLKLSCAASGFTFSTYTMSWVRQTPEKRLEWVAYISYGGGSTSYPDTVKGRFTISRDNAKNTLYLQMSSLKSEDTAIYYCTRHVTVVENSMDYWGQGTSVTVSS VL: DILLTQSPDILSVSPGERVSFSCRASQSIGTSIHWYQQRTNGSPRLLIKYVSESFSGTPSRFSGSGSGTAFTLTINSVESEDIADYYCQQTHSWPWTFGGGTKLEIK
8.83

meta.source: patent US20210347873A1
